Reference source: patent US20160194391A1

- Tested target: T1, human IL-6 (human, UniProt P05231 30-212)
- T1 construct: Soluble IL-6 of the mAb SPR (analyte was 3×FLAG-IL-6 or IL-6 CYT-213); also called recombinant human IL-6 (Prospec-Tany CYT-213, CYT-274)
- Method summary: SPR (SensiQ Pioneer), mAb captured on protein G, IL-6 as analyte (3×FLAG-IL-6 or IL-6 CYT-213, 1-100 nM), 25 C, 1:1 model
Form field: kon (one value per entry).
Respond with the bare value in M⁻¹ s⁻¹.

Reference set, count: 3
1) 9C8 chimeric mAb (antibody, V domains shown, Rabbit/human chimeric IgG (human IgG1, kappa); HEK293; also called 9C8 clone) VH: QSVEESGGRLVTPGTPLTLTCTVSGIDLSSYDMSWVRQAPGKGLEWIGYIYTDSSTYYANWAKGRFTISKTSTTVDLKMTSLTTEDTATYFCAKGSTDYAFDTRLDLWGPGTLVTVS VL: AYDMTQTPASVEVAMGGTVTIKCQASQSISNELSWYQQKPGQPPKLLIYRTSTLASGVSSRFKGSGSGTEYTLTISGVECADAATYYCQQGYNSNDVDNVFGGGTKVVVVR	765000
2) 18D4 chimeric mAb (antibody, V domains shown, Rabbit/human chimeric IgG (human IgG1, kappa); HEK293; also called 18D4 clone) VH: QSVEESGGRLVTPGTPLTLTCTVSGFSLSSYAMTWVRQAPGKGLEWIGTSYVYSGDTWYASWVKGRFTISKTSTTVDLKITSPTTEDTATYFCARVGDYDDYGAHDVFDSWGPGTLVTVSS VL: YDMTQTPASVEVAVGGTVTIKCQASESISSWLSWYQQKPGQRPKLLLYRASTLASGVSSRFSGSGYGTEFTLTISGVQCEDAATYYCQQGYTGGNVDNAFGGGTKVVVVR	666000
3) 9H4 chimeric mAb (antibody, V domains shown, Rabbit/human chimeric IgG (human IgG1, kappa); HEK293; also called 9H4 clone) VH: QSLEESGGRLVTPGTPLTLTCTASGFSLSSYDMSWVRQAPGKGLEWIGYIYTDTSTYYANWAKGRFSISKTSTTVDLKMTSLTAEDTATYFCAKGSTDYAFDTRLDLWGPGTLVTVSS VL: YDMTQTPASVEVAMGGTVTIKCQASQSISNELSWYQQKPGQPPKLLIYRTSTLASGVSSRFKGSGSGTEYTLTISGVECADAATYYCQQGYNSNDVDNVFGGGTEVVVVR	816000

// moving on: another record for kon
Prompt line: Name the reported kon value associated with the binder 13A8 chimeric mAb (antibody, V domains shown, HEK293; also called 13A8 clone) VH: QSVEESGGRLVTPGTPLTLTCTVSGIDLSSYDMSWVRQAPGKGLEWIGYIYTDSSTWYANWAKGRFTISKTSSTTVDLKMTSLTTEDTATYFCAKGSTDYAFDTRLDLWGPGTLVTVSS VL: NIVMTQTPSPVSGAVGGTVTINCQASQSISNELSWYQQKPGQPPRLLIYRASTLTSGVSSRFKGSGAGTQFTLTISGVECADAATYYCQQGYNSNDVDNVFGGGTKVVVVR
Response line: 633000
